Data provenance is paper PMC11480844.

B1: H2-Kb / E8 (parent)
chain 1: GDSVTQTEGLVTVTEGLPVKLNCTYQTTYLTIAFFWYVQYLNEAPQVLLKSSTDNKRTEHQGFHATLHKSSSSFHLQKSSAQLSDSALYYCALNTNTGKLTFGDGTVLTVKP
chain 2: EAAVTQSPRNKVAVTGGKVTLSCNQTNNHNNMYWYRQDTGHGLRLIHYSYGAGSTEKGDIPDGYKASRPSQENFSLILELATPSQTSVYFCASGDWGAGTGQLYFGEGSKLTVL
chain 3: not shown
chain 4: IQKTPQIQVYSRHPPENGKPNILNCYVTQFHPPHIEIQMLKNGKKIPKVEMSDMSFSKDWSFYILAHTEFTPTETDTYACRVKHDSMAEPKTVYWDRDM
chain 5: SIINFEKL

- Variants of: B1
- experimentalDetails: % of reporter cells activated (NFAT-GFP), raw; further: test concentration or dose not given here
- protocolConditions: with E8; scale: % of reporter cells activated
Please go through the items and note down their ratio to parent.
API note: the answer field is a bare number with no unit suffix.

input: Item chain 5 L8S has what recorded ratio to parent?
output: 0.214

input: Ok, now chain 5 S1R
output: 0.0279

input: Ok, now chain 5 S1I
output: 0.0565

input: Ok, now chain 5 N4R
output: 0.0317

input: Ok, now chain 5 S1M
output: 0.0169

input: Ok, now chain 5 K7D
output: 0.288

input: Ok, now chain 5 L8E
output: 0.264

input: Ok, now chain 5 I2M
output: 0.834

input: Ok, now chain 5 I3K
output: 0.147

input: Ok, now chain 5 E6V
output: 0

input: Ok, now chain 5 E6I
output: 0.0166

input: Ok, now chain 5 L8P
output: 0.187

input: Ok, now chain 5 F5T
output: 0.892

input: Ok, now chain 5 L8H
output: 0.898

input: Ok, now chain 5 L8Q
output: 0.38

input: Ok, now chain 5 S1K
output: 0.00805
